Recorded measurements of pIC50, one per entry
# Target desc: human Keap1 kelch domain (amino acids Ala321-Thr609) (Homo sapiens, UniProt Q14145)
# Construct: human Keap1 kelch domain (amino acids Ala321-Thr609)
# Sequence (Q14145 321-609): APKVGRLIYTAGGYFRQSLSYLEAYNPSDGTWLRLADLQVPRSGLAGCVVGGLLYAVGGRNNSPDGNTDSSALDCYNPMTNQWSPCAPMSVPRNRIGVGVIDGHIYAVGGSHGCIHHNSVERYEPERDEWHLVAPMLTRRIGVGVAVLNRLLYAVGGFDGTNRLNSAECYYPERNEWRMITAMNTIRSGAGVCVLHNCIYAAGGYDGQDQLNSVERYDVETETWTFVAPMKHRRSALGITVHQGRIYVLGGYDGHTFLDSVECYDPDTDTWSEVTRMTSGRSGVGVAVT
# Method summary: Keap1-Nrf2 peptide binding assay (fluorescence polarisation)
# Measurement parameters: binding of Keap1 kelch domain (20 nM) to fluorescently labeled Nrf2 peptide (50 nM); read-out: IC50
The value called pIC50 is obtained by taking minus log10 of the concentration in mol/L.

Known pIC50 results, listed for orientation:
# Molecule, Target desc, pIC50
rows = [
    ("CC(=O)Nc1nc(C)c(S(=O)(=O)Nc2ccc(-c3cccc(C(=O)O)c3)c3ccccc23)s1 [Example 11]", "human Keap1 kelch domain (amino acids Ala321-Thr609) (Homo sapiens, UniProt Q14145)", 5.55),
    ("Cc1c(S(=O)(=O)Nc2ccc(-c3cc(C(=O)O)ccc3F)c3ncccc23)sc2ccc(Cl)cc12 [Example 93]", "human Keap1 kelch domain (amino acids Ala321-Thr609) (Homo sapiens, UniProt Q14145)", 5.19),
]

INPUT: Lab note: need pIC50 for CCCCCCCCn1nc(C)c(S(=O)(=O)Nc2ccc(-c3cc(C(=O)O)ccc3F)c3ncccc23)c1C [Example 95] on human Keap1 kelch domain (amino acids Ala321-Thr609) (Homo sapiens, UniProt Q14145), anyone have it?
OUTPUT: 5.66

INPUT: Lab note: need pIC50 for Cc1ccc2c(NS(=O)(=O)c3c(C)c(C)cc(C)c3C)ccc(-c3cccc(C(=O)O)c3)c2n1 [Example 7] on human Keap1 kelch domain (amino acids Ala321-Thr609) (Homo sapiens, UniProt Q14145), anyone have it?
OUTPUT: 5.96

INPUT: Lab note: need pIC50 for O=C(O)c1cccc(-c2ccc(NS(=O)(=O)c3ccc(N4CCCC4=O)cc3)c3ccccc23)c1 [Example 26] on human Keap1 kelch domain (amino acids Ala321-Thr609) (Homo sapiens, UniProt Q14145), anyone have it?
OUTPUT: 5.60

* * *

# Target desc: human Keap1 kelch domain (amino acids Ala321-Thr609) (Homo sapiens, UniProt Q14145)
# Construct: human Keap1 kelch domain (amino acids Ala321-Thr609)
# Method summary: Keap1-Nrf2 peptide binding assay (fluorescence polarisation)
# Measurement parameters: binding of Keap1 kelch domain (20 nM) to fluorescently labeled Nrf2 peptide (50 nM)
Parameter measured: pIC50
The value called pIC50 is obtained by taking minus log10 of the concentration in mol/L.

Known pIC50 results, listed for orientation:
# Molecule, pIC50
data = [
    ("O=C(O)c1cccc(-c2ccc(NS(=O)(=O)c3cc(Cl)cc(Cl)c3)c3ccccc23)c1 [Example 48]", 5.64),
    ("O=C(O)c1cccc(-c2ccc(NS(=O)(=O)c3ccc4ncsc4c3)c3ccccc23)c1 [Example 44]", 5.42),
    ("N#Cc1ccc(S(=O)(=O)Nc2ccc(-c3cccc(C(=O)O)c3)c3ccccc23)c(Cl)c1 [Example 33]", 5.28),
    ("CN1CCOc2cc(S(=O)(=O)Nc3ccc(-c4cccc(C(=O)O)c4)c4ccccc34)ccc21 [Example 43]", 5.80),
    ("O=C(O)c1ccc(F)c(-c2ccc(NS(=O)(=O)c3cc(F)cc(F)c3Cl)c3ccccc23)c1 [Example 92]", 5.28),
]

INPUT: Consider the molecule O=C(O)c1ccc(F)c(-c2ccc(NS(=O)(=O)c3c(Cl)cc(C(F)(F)F)cc3Cl)c3ccccc23)c1 [Example 81] and give its measured pIC50.
OUTPUT: 6.15

INPUT: Consider the molecule Cc1cccc(Cl)c1S(=O)(=O)Nc1ccc(-c2cccc(C(=O)O)c2)c2ccccc12 [Example 21] and give its measured pIC50.
OUTPUT: 5.74

INPUT: Consider the molecule Cc1cc(NC(=O)c2ccccc2)ccc1S(=O)(=O)Nc1ccc(-c2cccc(C(=O)O)c2)c2ccccc12 [Example 47] and give its measured pIC50.
OUTPUT: 5.30
